Where a name gives a salt, the structure may show the parent alone.
Lab note: IC50 readings collected with JAK3 tyrosine kinase (Homo sapiens, UniProt P52333) for the following compounds.
Sequence (P52333 whole entry): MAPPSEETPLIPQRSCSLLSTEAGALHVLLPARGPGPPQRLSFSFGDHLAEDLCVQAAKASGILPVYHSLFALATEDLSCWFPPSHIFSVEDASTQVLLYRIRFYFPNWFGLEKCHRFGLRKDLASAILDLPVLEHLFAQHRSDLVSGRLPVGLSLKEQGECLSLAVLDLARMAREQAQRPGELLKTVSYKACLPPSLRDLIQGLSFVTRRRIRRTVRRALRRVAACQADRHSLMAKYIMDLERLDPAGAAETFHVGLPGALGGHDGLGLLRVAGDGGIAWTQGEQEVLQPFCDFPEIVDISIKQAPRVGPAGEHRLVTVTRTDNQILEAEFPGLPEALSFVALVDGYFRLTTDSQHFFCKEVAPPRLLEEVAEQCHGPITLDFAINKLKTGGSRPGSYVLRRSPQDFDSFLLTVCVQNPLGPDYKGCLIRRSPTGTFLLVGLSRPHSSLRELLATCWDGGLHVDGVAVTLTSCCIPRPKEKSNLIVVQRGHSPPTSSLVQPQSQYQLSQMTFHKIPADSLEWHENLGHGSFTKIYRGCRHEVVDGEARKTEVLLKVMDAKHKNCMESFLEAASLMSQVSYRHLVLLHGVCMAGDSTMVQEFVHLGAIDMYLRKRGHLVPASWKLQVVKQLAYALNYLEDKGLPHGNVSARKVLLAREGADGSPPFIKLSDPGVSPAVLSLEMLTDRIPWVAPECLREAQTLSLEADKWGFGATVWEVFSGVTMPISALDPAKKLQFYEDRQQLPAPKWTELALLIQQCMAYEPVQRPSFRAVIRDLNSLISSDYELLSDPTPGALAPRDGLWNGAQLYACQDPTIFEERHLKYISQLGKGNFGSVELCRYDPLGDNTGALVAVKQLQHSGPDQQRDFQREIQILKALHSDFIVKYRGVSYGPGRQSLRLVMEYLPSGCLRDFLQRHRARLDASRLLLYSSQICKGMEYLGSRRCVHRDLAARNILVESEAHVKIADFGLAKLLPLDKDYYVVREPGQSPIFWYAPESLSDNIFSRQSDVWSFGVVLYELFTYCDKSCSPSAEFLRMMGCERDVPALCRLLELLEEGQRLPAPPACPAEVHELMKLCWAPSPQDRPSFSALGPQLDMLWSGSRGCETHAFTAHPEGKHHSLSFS
RECORDED ENDPOINT: IC50 (nM)

Query :: Item C[C@H](Nc1nc(Nc2cnccn2)ccc1C(N)=O)c1ccc(F)cc1 [Example 187] has what recorded IC50?
Result :: 400

Query :: Item CC(C)C[C@H](CO)Nc1cc(Nc2cnccn2)nc(N[C@@H](C)c2ccc(F)cc2)n1 [Example 88] has what recorded IC50?
Result :: 200

Query :: Item CCNC(=O)c1cc(Nc2cnccn2)nc(N[C@@H](C)c2ccc(F)cc2)c1 [Example 152] has what recorded IC50?
Result :: 93

Query :: Item C[C@H](Nc1nc(Nc2cnccn2)cc(O[C@H]2CCCC[C@@H]2O)n1)c1ccc(F)cc1 [Example 101, hydrochloride] has what recorded IC50?
Result :: 600

Query :: Item C[C@H](Nc1cc(C(=O)NC2CC2)cc(Nc2cnccn2)n1)c1ccc(F)cc1 [Example 163] has what recorded IC50?
Result :: 170

I: C[C@H](Nc1nc(Nc2cnccn2)cc(-c2cncc(C#N)c2)n1)c1ccc(F)cc1 [Example 74]
II: C[C@H](Nc1nc(Nc2cnccn2)cc(-c2nccs2)n1)c1ccc(F)cc1 [Example 54]
III: C[C@H](Nc1nc(Nc2cnccn2)cc(-c2ccc(C(N)=O)nc2)n1)c1ccc(F)cc1 [Example 57]
Query :: Order these by IC50, descending, and give the full ranking. Submit the labels in the order that the ranking request calls for.
Result :: II, I, III
(II: 1800 nM, I: 230 nM, III: 82 nM)

---

Structures can show the parent of a compound that is named as a salt.
Lab note: IC50 readings collected with JAK2 tyrosine kinase (Homo sapiens) for the following compounds.
Sequence (O60674 whole entry): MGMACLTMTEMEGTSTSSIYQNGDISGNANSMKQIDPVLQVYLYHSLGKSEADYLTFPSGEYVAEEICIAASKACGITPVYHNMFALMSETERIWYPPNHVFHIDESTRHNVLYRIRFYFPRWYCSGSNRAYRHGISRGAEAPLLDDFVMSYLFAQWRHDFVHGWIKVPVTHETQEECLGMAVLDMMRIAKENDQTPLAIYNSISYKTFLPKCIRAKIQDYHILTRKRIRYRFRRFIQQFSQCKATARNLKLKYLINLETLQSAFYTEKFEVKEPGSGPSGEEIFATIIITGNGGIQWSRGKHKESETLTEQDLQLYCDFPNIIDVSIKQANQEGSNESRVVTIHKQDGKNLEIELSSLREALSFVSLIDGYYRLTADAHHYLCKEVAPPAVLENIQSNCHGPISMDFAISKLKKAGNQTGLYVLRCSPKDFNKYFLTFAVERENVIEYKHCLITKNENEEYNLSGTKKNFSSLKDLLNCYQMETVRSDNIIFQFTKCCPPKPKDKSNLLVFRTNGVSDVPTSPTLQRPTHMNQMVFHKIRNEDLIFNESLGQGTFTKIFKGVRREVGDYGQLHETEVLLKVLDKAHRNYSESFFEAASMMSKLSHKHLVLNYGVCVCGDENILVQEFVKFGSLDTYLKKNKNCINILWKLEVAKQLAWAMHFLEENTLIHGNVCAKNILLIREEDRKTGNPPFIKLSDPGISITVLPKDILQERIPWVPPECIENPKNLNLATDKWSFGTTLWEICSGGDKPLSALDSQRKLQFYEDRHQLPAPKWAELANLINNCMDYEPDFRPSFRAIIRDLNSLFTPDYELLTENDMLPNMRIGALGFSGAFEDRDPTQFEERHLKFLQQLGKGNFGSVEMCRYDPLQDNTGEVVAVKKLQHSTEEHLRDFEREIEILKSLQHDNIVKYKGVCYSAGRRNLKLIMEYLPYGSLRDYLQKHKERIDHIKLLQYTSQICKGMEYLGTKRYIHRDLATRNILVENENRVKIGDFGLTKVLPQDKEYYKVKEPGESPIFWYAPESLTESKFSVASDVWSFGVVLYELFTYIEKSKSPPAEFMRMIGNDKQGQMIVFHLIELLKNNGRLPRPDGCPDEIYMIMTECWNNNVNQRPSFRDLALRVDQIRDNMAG
RECORDED ENDPOINT: IC50 (nM)

1: COC1CN(c2cc(Nc3cnccn3)nc(N[C@@H](C)c3ccc(F)cc3)n2)C1 [Example 183, hydrochloride]
2: C[C@H](Nc1nc(Nc2cnccn2)cc(N2CCN(S(=O)(=O)c3ccccc3)CC2)n1)c1ccc(F)cc1 [Example 114, hydrochloride]
Query :: // pick min by IC50: 1 , 2 Field: selected label. Fill in the label of the entry you choose.
Result :: 1

---

EXPERIMENTAL SYSTEM: JAK3 tyrosine kinase (Homo sapiens, UniProt P52333)
Construct: purchased Carnabioscience Co
EXPERIMENT SUMMARY: Test 1: inhibitory activity to JAK3 tyrosine kinase (ELISA)
Format: biochemical
CONDITION DETAILS: 25 μM ATP in substrate solution, 30° C. for 1 hour, n=2
pIC50: −log10 of the molar value. Where a name gives a salt, the structure may show the parent alone.
RECORDED ENDPOINT: pIC50

A selection of reference data follows.
Query :: Item C[C@H](Nc1nc(Nc2cnccn2)cc(N2CC(O)(C(F)(F)F)C2)n1)c1ccc(F)cc1 [Example 192, hydrochloride] has what recorded pIC50?
Result :: 6.92

Query :: Item C[C@H](Nc1nc(Nc2cnccn2)cc(-c2cc[nH]n2)n1)c1ccc(F)cc1 [Example 24, hydrochloride] has what recorded pIC50?
Result :: 7.28

Query :: Item C[C@H](Nc1nc(Nc2cnccn2)cc(N2CC(F)C2)n1)c1ccc(F)cc1 [Example 44] has what recorded pIC50?
Result :: 6.85

Query :: Item C[C@H](Nc1nc(Nc2cnccn2)cc(N[C@H](CO)Cc2ccccc2)n1)c1ccc(F)cc1 [Example 87] has what recorded pIC50?
Result :: 6.35

Query :: Item C[C@H](Nc1nc(Nc2cnccn2)cc(N2CC(NS(C)(=O)=O)C2)n1)c1ccc(F)cc1 [Example 177] has what recorded pIC50?
Result :: 7.06

Query :: Item C[C@H](Nc1nc(Nc2cnccn2)cc(-c2cnco2)n1)c1ccc(F)cc1 [Example 22, hydrochloride] has what recorded pIC50?
Result :: 7.06

Query :: Item C[C@H](Nc1cc(C(=O)N2CCOCC2)cc(Nc2cnccn2)n1)c1ccc(F)cc1 [Example 161] has what recorded pIC50?
Result :: 6.64

Query :: Item CC(=O)c1cc(Nc2cnccn2)nc(N[C@@H](C)c2ccc(F)cc2)c1 [Example 182, hydrochloride] has what recorded pIC50?
Result :: 6.36

Query :: Item C[C@H](Nc1nc(Nc2cnccn2)cc(-c2ccc3c(c2)OCO3)n1)c1ccc(F)cc1 [Example 92, hydrochloride] has what recorded pIC50?
Result :: 6.34

Query :: Item C[C@H](Nc1nc(NCc2ccco2)cc(Nc2cnccn2)n1)c1ccc(F)cc1 [Example 103, hydrochloride] has what recorded pIC50?
Result :: 6.51

A: C[C@H](Nc1nc(Nc2cnccn2)cc(-c2nn[nH]n2)n1)c1ccc(F)cc1 [Example 75]
B: C[C@H](Nc1nc(Nc2cnccn2)cc(N2CC(N(C)C)C2)n1)c1ccc(F)cc1 [Example 220]
Query :: I'd appreciate it if you could identify which of A and B has the greater pIC50. Field: selected label. Fill in the label of the entry you choose.
Result :: B

1: COc1ccc(-c2cc(Nc3cnccn3)nc(N[C@@H](C)c3ccc(F)cc3)c2)cn1 [Example 6]
2: COCCOc1cc(Nc2cnccn2)nc(N[C@@H](C)c2ccc(F)cc2)c1 [Example 142, hydrochloride]
Query :: // pick min by pIC50: 1 , 2 Field: selected label. Fill in the label of the entry you choose.
Result :: 1

1: C[C@H](Nc1nc(NCC(N)=O)cc(Nc2cnccn2)n1)c1ccc(F)cc1 [Example 79, hydrochloride]
2: CC(=O)NCCNc1cc(Nc2cnccn2)nc(N[C@@H](C)c2ccc(F)cc2)n1 [Example 78, hydrochloride]
Query :: // pick min by pIC50: 1 , 2 Field: selected label. Fill in the label of the entry you choose.
Result :: 1
(1: 6.85, 2: 7.46)

P: C[C@@H](c1ccc(F)cc1)N(C)c1cc(-c2cnn(C)c2)cc(Nc2cnccn2)n1 [Example 139, hydrochloride]
Q: C[C@H](Nc1nc(NCCN)cc(Nc2cnccn2)n1)c1ccc(F)cc1 [Example 76, dihydrochloride]
R: C[C@H](Nc1nc(Nc2cnccn2)cc(N2CC(F)(F)C2)n1)c1ccc(F)cc1 [Example 3, hydrochloride]
S: C[C@H](Nc1nc(Nc2cnccn2)cc(-c2ccc(O)nc2)n1)c1ccc(F)cc1 [Example 26]
Query :: // ascending sort on recorded pIC50 Submit the labels in the order that the ranking request calls for.
Result :: P, R, Q, S
(P: 6.54, R: 6.89, Q: 7.24, S: 7.55)
